- protocol-details: chemical genetic growth profiling, strain panel (AID 1159580);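 note: tested at 20 µM; growth read once vehicle control cultures reached saturation at 30 °C; 1 = growth at the plate median or of vehicle wells; lower values mean less growth of the strain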
- assay-context: S. cerevisiae deletion strains, growth OD, locus YHR082C, strain KSP1, active compounds read low
Screen size: about 5,500 compounds; about 2,000 (36%) were called active. Not shown: some 18% with an inconclusive outcome. The list shows a part of the results.
Each entry below carries its recorded normalized growth.
Reply briefly: the number, and no unit.

// worked examples, normalized growth included
Cc1c(C(=O)NCCNc2ccc(C(F)(F)F)cc2[N+](=O)[O-])cnn1-c1ccc(F)cc1 = 1.01
CC(NC(=S)Nc1ccc(Oc2ccc(Cl)cc2)cc1)c1ccccc1 (stereo unspecified) = 1.02
N#C/C(=C\C=C\c1ccccc1)c1nc2ccccc2[nH]1 = 0.819
Cc1oc(-c2ccc(Cl)cc2)cc1C(=O)N1CCN(c2ccc(C(F)(F)F)cn2)CC1 = 0.966
Cc1ccc(C(=O)Nc2ccc3ccccc3n2)cc1 = 0.994
CCOC(=O)C(O)(c1ccc(NC(=O)Nc2ccc(Cl)cc2)cc1)C(F)(F)F (stereo unspecified) = 1.05
O=C(NCc1ccc(F)c(Cl)c1)Nc1csc([N+](=O)[O-])c1 = 0.99
Fc1ccc(Nc2nc(-c3ccc(F)c(F)c3)cs2)c(F)c1 = 0.155

Inquiry: What does the data say about its normalized growth? Entry: `CC(/C=C/c1ccccc1)=N/OC(=O)c1ccccc1Cl`
Reply text: 0.96

Inquiry: What does the data say about its normalized growth? Entry: `CSc1sc(-c2ccn[nH]2)c(-c2ccccc2)c1C#N`
Reply text: 1.03

Inquiry: What does the data say about its normalized growth? Entry: `O=C(Nc1ccc(Cl)cc1)c1csc([N+](=O)[O-])c1`
Reply text: 0.891
